# target.system: insulin receptor subtype A (human), P06213
# method.description: cell-based or functional assay
Bridges are numbered along the chain shown (N, C = ends). Where no end group is shown, it is not given here.
measure.name: % Insulin Activity (in vitro; assay not stated) (%)
Your answer should be a plain number; it is taken to be in %.

[
  {
    "binder": "MIU-58: B1-PEG20K-B1- Dimer, P05019 49-110 (ligand, disulfide 18-56, 42-47, 6-43; also: dimer: two chains linked head to head via 20 kDa PEG) {PEG 20 kDa}-GPEHLCGAELVDALYLVCGDRGFYGYGSSSRRAPQTGIVDECCFRSCDLRRLENYCN",
    "numeric.result": 19.7
  }
]

Switching to the query record.
# % Insulin Activity (in vitro; assay not stated) lookup, item MIU-67: B0, C8-PEG10K di-PEGylated B^1(H5,Y16,L17)25-C^1(K8)-A^1(N18,21) (ligand, disulfide 18-56, 42-47, 6-43) {PEG 10 kDa}-GPEHLCGAELVDALYLVCGDRGFYGYGSSSRK(PEG 10 kDa)APQTGIVDECCFRSCDLRRLENYCN
0.2
